Cited source: patent US10131652B2

system: ragweed (common ragweed, Ambrosia elatior); test: Test B pre-/postemergence plant response; format: in vivo; details: 125 g ai/ha, postemergence; 0 to 100 scale, 0 no effect, 100 complete control
quantity_kind: Plant response rating, Ragweed
Answers are plain numbers.

INSERT INTO assay_data (chem_smiles, quantity_kind, readout_value) VALUES
  ('Fc1cccc(Oc2ncc(Cl)cn2)c1-c1cc(C(F)(F)F)on1', 'Plant response rating, Ragweed', 90),
  ('Fc1cccc(Oc2ncc(Cl)cn2)c1-c1cc(C2CC2)on1', 'Plant response rating, Ragweed', 60),
  ('Fc1cccc(Oc2ncc(Cl)cn2)c1-c1cc(C(F)F)no1', 'Plant response rating, Ragweed', 60),
  ('FC(F)(F)c1csc(-c2ccccc2Oc2ncc(Br)cn2)n1', 'Plant response rating, Ragweed', 0),
  ('C=C(C)c1cc(-c2ccccc2Oc2ncc(Cl)cn2)on1', 'Plant response rating, Ragweed', 20),
  ('FC(F)c1cc(-c2c(Cl)cccc2Oc2ncc(Cl)cn2)no1', 'Plant response rating, Ragweed', 10);

Dear reader, for each entry below, please note its Plant response rating, Ragweed.
1. Fc1cnc(Oc2ccccc2-c2cc(C(F)F)no2)nc1
2. FC(F)(F)c1cc(-c2c(Cl)cccc2Oc2ncc(Cl)cn2)no1

1: 30; 2: 20

What does the record list as Plant response rating, Ragweed for `FC(F)(F)c1csc(-c2ccccc2Oc2ncc(I)cn2)n1` ?
0
